# credit: PubChem BioAssay AID2066

# PROTOCOL: modulators of AGP1-GFP expression in yeast TOR pathway, primary screen, cell-based, multiplex flow cytometry, S. cerevisiae, MLPCN library (AID 2066);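 also: median GFP channel fluorescence of the gated AGP1 strain per well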
# CONDITION DETAILS: 3 h, at 10 µM, GFP as percent of DMSO wells
Out of some 320,000 compounds screened, about 50 (0.02%) were called active.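 The calls were made as follows: active = GFP response relative to DMSO above a set limit, near screen average plus 3 SD (cut at about 150% in these data); inconclusive = fewer than 70 cells counted for the yeast strain; inactive = the rest.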 What follows is part of a selection rich in actives, with near analogues and random picks from the rest.
Choose one outcome from this list and give only that: active, inactive

Field: example entries. Status: answers known.
compound=c1ccc2c(-c3nn4nnnc4c4ccccc34)cccc2c1 answer_label=inactive
compound=CC(=O)c1c(C)[nH]c(C(=O)COc2ccc3c(C)cc(=O)oc3c2)c1C answer_label=inactive
compound=Cc1ccc(NC(=O)CCCNC(=O)c2ccc(Cl)cc2)cc1S(=O)(=O)N1CCOCC1 answer_label=inactive
compound=CCN1/C(=C\c2ccc3ccccc3[n+]2CC)Sc2cc(C)ccc21 answer_label=active

Exam item: Which result was noted for this compound in the test: CCN(CC)CCNS(=O)(=O)c1ccc(/C=C/C(=O)O)cc1
Marked response: inactive

Exam item: And the next one, CS(=O)(=O)Nc1ccccc1C(=O)OCC(=O)NC1CC1 ?
Marked response: inactive

---

# PROTOCOL: modulators of AGP1-GFP expression in yeast TOR pathway, primary screen, cell-based, multiplex flow cytometry, S. cerevisiae, MLPCN library (AID 2066);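 also: median GFP channel fluorescence of the gated AGP1 strain per well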
# CONDITION DETAILS: 3 h, at 10 µM, active compounds read high, GFP as percent of DMSO wells
About 50 (0.02%) of roughly 320,000 compounds were called active. Many of the other results were omitted from the sample, so actives are more common in it than they were.
Kindly state GFP response vs DMSO for each of the entries shown.
Give bare numbers, in %.

Below are worked cases with known answers.
compound=CC(C)COc1ccc(C(=O)NNC(=O)CCC(=O)c2cccs2)cc1 result_number=107
compound="CC(C)N1C(=O)N(c2ccccc2)C(C)(O)CC1(C)C (configuration not stated)" result_number=99.2
compound="COc1cc(C(=O)OCC(=O)N(CC(C)C)C2CCS(=O)(=O)C2)ccc1OCC(C)C (configuration not stated)" result_number=103

Below are some compounds; for each one, tell me its GFP response vs DMSO.
1. O=C(N/N=C/c1cccc([N+](=O)[O-])c1)C1CC(=O)N(c2ccc(Br)cc2)C1 (configuration not stated)
2. Cn1cccc1C(=O)OCC(=O)c1ccc(Br)s1
3. CN(C)CCCn1c(SCCN2C(=O)c3ccccc3C2=O)nc2ccccc2c1=O
4. Cc1ccc(C)c(C(=O)COC(=O)Cn2[nH]c(=O)c3ccccc3c2=O)c1
5. Fc1ccccc1Cc1ccc(Cl)nn1
6. Cc1ccc(NC(=O)CSc2nn3c(=O)c(C)nnc3s2)cc1Cl
7. Cc1ccc(C(=O)CN2C(=O)NC3(CCOc4ccccc43)C2=O)s1 (configuration not stated)

Marked response:
1. 101
2. 100
3. 103
4. 101
5. 101
6. 93.9
7. 102

Below are some compounds; for each one, tell me its GFP response vs DMSO.
1. COc1ccc(NC(=O)Cn2ncn3c(cc4ccccc43)c2=O)c(OC)c1OC
2. CC1(C)NC(=O)N(CC(=O)N2CCN(S(=O)(=O)c3ccccc3F)CC2)C1=O

Marked response:
[26.6, 95.5]

Below are some compounds; for each one, tell me its GFP response vs DMSO.
1. O=C(Nc1nccs1)c1cc(S(=O)(=O)N2CCOCC2)c(Cl)cc1Cl
2. Cc1cc(C)c(OCCN2CC(C)OC(C)C2)c(Br)c1 (configuration not stated)
3. CSCC[C@H](NC(=O)CCCn1nnc2ccccc2c1=O)C(=O)O
4. COc1cccc(CNC(=O)C2CCN(S(=O)(=O)c3cccc4cccnc34)CC2)c1

Marked response:
[100, 103, 103, 102]

Below are some compounds; for each one, tell me its GFP response vs DMSO.
1. COc1ccc(C(C)(C)C)cc1NC(=O)CCN1C(=O)C2CCCCC2C1=O (configuration not stated)
2. CCCCN(C(=O)c1ccc2ccccc2c1)c1c(N)n(CCCC)c(=O)[nH]c1=O
3. O=C(COC(=O)c1cc(S(=O)(=O)N2CCOCC2)ccc1F)NC1CC1
4. O=C(Nc1ccc(F)cc1)C1CCCN(S(=O)(=O)c2ccc(-n3cnnn3)cc2)C1 (configuration not stated)
5. O=C(COC(=O)c1ccc(F)c(S(=O)(=O)N2CCOCC2)c1)NCc1ccc2c(c1)OCO2
6. O=C1c2ccccc2S(=O)(=O)N1Cc1c(F)cccc1Cl

Marked response:
112
92.5
91.4
102
92
95.1

---

# PROTOCOL: modulators of AGP1-GFP expression in yeast TOR pathway, primary screen, cell-based, multiplex flow cytometry, S. cerevisiae, MLPCN library (AID 2066);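 also: median GFP channel fluorescence of the gated AGP1 strain per well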
# CONDITION DETAILS: 3 h, at 10 µM, GFP as percent of DMSO wells
About 50 (0.02%) of roughly 320,000 compounds were called active.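 Rule for the calls: active = GFP response relative to DMSO above a set limit, near screen average plus 3 SD (cut at about 150% in these data); inconclusive = fewer than 70 cells counted for the yeast strain; inactive = the rest.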 What follows is part of a selection rich in actives, with near analogues and random picks from the rest.
Choose one outcome from this list and give only that: yes (active), no (inactive)

Field: example entries. Status: answers known.
compound=O=C1[C@@H]2C(c3cccnc3)=NO[C@@H]2C(=O)N1c1ccc(Cl)cc1Cl answer_label=no
compound=Cc1cccc(C)c1NC(=O)C1(N(C(=O)c2ccccn2)c2ccc(O)cc2)CCCCC1 answer_label=no
compound=O=C(Nc1cccc([N+](=O)[O-])c1)N1CCc2ccccc2C1 answer_label=no
compound=Cc1oc(C(N)=O)cc1COc1ccc(C(N)=O)cc1 answer_label=no
compound=CN=C(Nc1cccc(S(=O)(=O)N2CCOCC2)c1)c1ccccc1 answer_label=no
compound="CCOc1ccc(C2NC(=S)NC3=C2CCc2ccccc23)cc1 (stereo not drawn)" answer_label=no
compound=O=C(CN1CCN(S(=O)(=O)c2cc(Cl)ccc2Cl)CC1)c1ccc(O)c(O)c1 answer_label=no
compound=COc1ccccc1N(CC(=O)Nc1ccc(C(F)(F)F)cc1)S(C)(=O)=O answer_label=no
compound=COc1cccc(C(=O)Nc2cc3c(cc2Br)OCCCO3)c1 answer_label=no
compound=COc1ccc(/C(C)=N/N2CCOCC2)c(O)c1 answer_label=no

Exam item: Which result was noted for this compound in the test: COc1cccc(NC(=O)COC(=O)/C=C/c2ccco2)c1
Marked response: no

Exam item: And the next one, Cc1ccc(C)c(NC(=O)CCC(=O)N/N=C2/CC(=O)CC(C)(C)C2)c1 ?
Marked response: no

Exam item: And the next one, COc1ccc(NC2=CC(=S)NC(C)(C)C2)cc1 ?
Marked response: no

Exam item: And the next one, NS(=O)(=O)c1ccc(CCNC(=O)c2nc(CS(=O)(=O)c3ccc(Cl)cc3)no2)cc1 ?
Marked response: no

Exam item: And the next one, CCC(C)n1c(-c2cc(OC)c(OC)c(OC)c2)nc2nc3ccccc3nc21 (stereo not drawn) ?
Marked response: no

Exam item: And the next one, COC(=O)c1ccc(COC(=O)c2cnc(Cl)c(Cl)c2)cc1 ?
Marked response: no

Exam item: And the next one, Cc1ccc(Oc2cc(NC(=O)CCCn3nc(C)c([N+](=O)[O-])c3C)cc([N+](=O)[O-])c2)cc1 ?
Marked response: no

Exam item: And the next one, CCOC(=O)C(C)n1cnc2scc(-c3ccc(C)c(C)c3)c2c1=O (stereo not drawn) ?
Marked response: no

Exam item: And the next one, COc1ccc(CCNC(=O)CCc2cn(C)c3ccccc23)c(OC)c1 ?
Marked response: no

Exam item: And the next one, CC(C)Cc1nn2c(=O)cc(O)nc2s1 ?
Marked response: no

Exam item: And the next one, Cc1ccc(NC(=O)Cn2cnc3c(OCc4ccccc4)ncnc32)cc1C ?
Marked response: no

Exam item: And the next one, Cc1ccc(CNC(=O)Cn2cnc(S(=O)(=O)N3CCCCC3)c2)o1 ?
Marked response: no

Exam item: And the next one, Cc1cccc(CSc2nc3c(c(=O)n2C)SCC3)c1 ?
Marked response: no

Exam item: And the next one, COc1ccc(OC)c(S(=O)(=O)Nc2c(C)nn(C)c2C)c1 ?
Marked response: no

Exam item: And the next one, O=C(NCc1ccccc1)[C@@H]1CSC2c3ccccc3C(=O)N21 (stereo partly drawn) ?
Marked response: no

Exam item: And the next one, CC(C)C[C@@H](NC(=O)[C@H]1CCCN1C(=O)Cc1ccccc1)C(N)=O ?
Marked response: no

Exam item: And the next one, O=S(=O)(c1cc(Cl)ccc1Cl)N1CCN(Cc2ccco2)CC1 ?
Marked response: no

Exam item: And the next one, Cc1cccc(Nc2nc3c(S(=O)(=O)c4ccccc4)nnn3c3ccccc23)c1C ?
Marked response: yes

Exam item: And the next one, O=C(Nc1ccc(C(=O)NCc2ccccc2Cl)cc1)C1=CSCCO1 ?
Marked response: no

Exam item: And the next one, CCOc1ccc2oc(C(=O)N(CC)CC(=O)Nc3ccc(NC(C)=O)cc3)c(C)c2c1 ?
Marked response: no

Exam item: And the next one, CC(C)CCN1CCN(C/C=C/c2ccco2)CC1CCO (stereo not drawn) ?
Marked response: no
